- Tested on: Erysiphae graminis
- test: Fungicidal activity against Barley Powdery Mildew (BPM) disease
- Format: in vivo
- appliedConditions: Barley Powdery Mildew; concentration 2 ppm
Record form. Attribute: BPM (Fungicidal Activities, C.V.). Fill in for each entry.
Please state the figure in %; there is no need to write the unit.

## Task BPM (Fungicidal Activities, C.V.) for CNC(=O)C(=NOC)c1ccccc1CON=Cc1cccc(OC(F)=Cc2cccc(Cl)c2)c1 [Compound 38] ?
## Result 87

## Task Let us now turn to CCCCc1ccc(C=C(F)Oc2cccc(C(C)=NOCc3ccccc3C(=NOC)C(=O)OC)c2)cc1 [Compound 70]
## Result 83

## Task Let us now turn to COC=C(C(=O)OC)c1ccccc1CON=C(C)c1cccc(OC(F)=Cc2ccc(C)cc2)c1 [Compound 42]
## Result 100

## Task Let us now turn to CON=C(C(=O)OC)c1ccccc1CON=C(C)c1cccc(OC(F)=Cc2ccc(C)c(C)c2)c1 [Compound 67]
## Result 99

## Task Let us now turn to COC=C(C(=O)OC)c1ccccc1CON=Cc1cccc(OC(F)=Cc2ccc(F)cc2)c1 [Compound 12]
## Result 98

## Task Let us now turn to COC=C(C(=O)OC)c1ccccc1CON=C(C)c1cccc(OC(F)=Cc2ccc(Cl)cc2)c1 [Compound 54]
## Result 99

## Task Let us now turn to COC=C(C(=O)OC)c1ccccc1CON=C(C)c1cccc(OC(F)=C(c2ccc(OC)cc2)C(F)(F)F)c1 [Compound 158]
## Result 98

## Task Let us now turn to CON=C(C(=O)OC)c1ccccc1CON=Cc1cccc(OC(F)=Cc2ccc(Cl)cc2)c1 [Compound 28]
## Result 86

meta.source: patent US6552080B1
